biological target: Nucleic Acid; experiment: Binding affinity to biotinylated HIV1 trans-activation response element RNA by surface plasmon resonance analysis; assay type: nucleic-acid assay, Human immunodeficiency virus 1
pKd: −log10 of the molar value.

>  <smiles_representation>
NC[C@H]1O[C@H](O[C@H]2[C@H](O)[C@@H](O)[C@H](N)C[C@@H]2N)[C@H](N)[C@@H](O)[C@@H]1O

>  <pKd>
4.62

$$$$
>  <smiles_representation>
NCCCC[C@H](N)C(=O)NCCN[C@H]1[C@@H](O)[C@H](N)C[C@H](N)[C@@H]1O[C@H]1O[C@H](CN)[C@@H](O)[C@H](O)[C@H]1N

>  <pKd>
5.70

$$$$
>  <smiles_representation>
NCCN[C@H]1[C@@H](O)[C@H](N)C[C@H](N)[C@@H]1O[C@H]1O[C@H](CN)[C@@H](O)[C@H](O)[C@H]1N

>  <pKd>
4.85

$$$$
>  <smiles_representation>
N=C(N)NCCC[C@H](N)C(=O)NCCN[C@H]1[C@@H](O)[C@H](N)C[C@H](N)[C@@H]1O[C@H]1O[C@H](CN)[C@@H](O)[C@H](O)[C@H]1N

>  <pKd>
5.52

$$$$

====

test system: Pseudomonas aeruginosa; assay: Antibacterial activity against Pseudomonas aeruginosa ATCC 27853 after 18 hrs; type: functional; settings: ATCC 27853, 18 h
readout_type: MIC

>  <smiles_representation>
NCCCC[C@H](N)C(=O)NCCN[C@H]1[C@@H](O)[C@H](N)C[C@H](N)[C@@H]1O[C@H]1O[C@H](CN)[C@@H](O)[C@H](O)[C@H]1N

>  <result>
> 100 µM

$$$$
>  <smiles_representation>
N=C(N)NCCC[C@H](N)C(=O)NCCN[C@H]1[C@@H](O)[C@H](N)C[C@H](N)[C@@H]1O[C@H]1O[C@H](CN)[C@@H](O)[C@H](O)[C@H]1N

>  <result>
> 100 µM

$$$$
>  <smiles_representation>
NC[C@H]1O[C@H](O[C@H]2[C@H](O)[C@@H](O)[C@H](N)C[C@@H]2N)[C@H](N)[C@@H](O)[C@@H]1O

>  <result>
> 100 µM

$$$$
>  <smiles_representation>
NCCN[C@H]1[C@@H](O)[C@H](N)C[C@H](N)[C@@H]1O[C@H]1O[C@H](CN)[C@@H](O)[C@H](O)[C@H]1N

>  <result>
50 µM

$$$$

====

Recorded measurements of pKd, one per entry
target: Nucleic Acid; assay: Binding affinity to A site of biotinylated 16S rRNA (unknown origin) by surface plasmon resonance analysis; assay type: nucleic-acid assay
pKd: −log10 of the molar value.

>  <smiles_representation>
N=C(N)NCCC[C@H](N)C(=O)NCCN[C@H]1[C@@H](O)[C@H](N)C[C@H](N)[C@@H]1O[C@H]1O[C@H](CN)[C@@H](O)[C@H](O)[C@H]1N

>  <pKd>
5.70

$$$$
>  <smiles_representation>
NCCN[C@H]1[C@@H](O)[C@H](N)C[C@H](N)[C@@H]1O[C@H]1O[C@H](CN)[C@@H](O)[C@H](O)[C@H]1N

>  <pKd>
5.15

$$$$
>  <smiles_representation>
NC[C@H]1O[C@H](O[C@H]2[C@H](O)[C@@H](O)[C@H](N)C[C@@H]2N)[C@H](N)[C@@H](O)[C@@H]1O

>  <pKd>
4.72

$$$$
>  <smiles_representation>
NCCCC[C@H](N)C(=O)NCCN[C@H]1[C@@H](O)[C@H](N)C[C@H](N)[C@@H]1O[C@H]1O[C@H](CN)[C@@H](O)[C@H](O)[C@H]1N

>  <pKd>
6.00

$$$$
